METHOD_NOTES: Aggregate analysis by widefield fluorescence microscopy
Type: physicochemical
MEASUREMENT_SETUP: Fig S8 panels B, D; average aggregate area, 3 fields of 1330 µm x 1330 µm
Note to self: Avg Area in 3 *(1330 µm *1330 µm) under 600 means condition met, ties and anything higher get condition not met.

Consider the substance CKFKFQF [BL4] . Is its Avg Area in 3 *(1330 µm *1330 µm) strictly less than 600? condition met

Lab note: confirm whether the reported Avg Area in 3 *(1330 µm *1330 µm) for this substance is below 600, equality not counting. substance: CKAKAQANMWQ [BL8] condition not met

Does the reported Avg Area in 3 *(1330 µm *1330 µm) of HHHHKIKIQINMYYYY [TM16] stay below 600? condition met

hey, is Avg Area in 3 *(1330 µm *1330 µm) for CQFQFQF [QBL4] lower than 600 or not? condition met

Is Avg Area in 3 *(1330 µm *1330 µm) of HHHHKIKIKIKIWWWW [TM4] strictly below 600? condition met

Given the entry CKFKQFFNM [CK14] , would its reported Avg Area in 3 *(1330 µm *1330 µm) be below 600? condition met

In plain terms, does CKIKQIINMWQ [MG5a / CK17] come in under 600 for Avg Area in 3 *(1330 µm *1330 µm)? condition met

Is Avg Area in 3 *(1330 µm *1330 µm) of HIHIQIC [CN12] strictly below 600? condition not met

###

Format: physicochemical
MEASUREMENT_SETUP: Fig S10 panel E
QUANTITY_KIND: ThT Cat.

Consider the substance KIKQII and give its measured ThT Cat.. 0 (ThT-inactive (N-Fold <2))

Find the recorded ThT Cat. belonging to CEIEIQINM and report it. 1 (ThT. Cat is 1, if Rel. ThT >2)

Quick one: ThT Cat. for CKIKQIINM ? 1 (ThT. Cat is 1, if Rel. ThT >2)

# ThT Cat. lookup, item CKFKFQF 1 (ThT. Cat is 1, if Rel. ThT >2)

Endpoint output: ThT Cat. of MKFKFQF . Value? 0 (ThT-inactive (N-Fold <2))

// lookup ThT Cat. for RGDSGGGGGGKIKIQIC 1 (ThT. Cat is 1, if Rel. ThT >2)

Quick check: ThT Cat. of HRRHFRHKITKKK ? 0 (ThT-inactive (N-Fold <2))

Need ThT Cat. of CKAKAQA , thanks. 0 (ThT-inactive (N-Fold <2))

Could you share which ThT Cat. value was measured for EIEIQINMWQ ? 1 (ThT. Cat is 1, if Rel. ThT >2)

For the substance shown here, CETMYDKILKNLSRSR , give the reported ThT Cat.. 0 (ThT-inactive (N-Fold <2))

Entry QCKFKQFFNMWQ : reported ThT Cat. = ? 1 (ThT. Cat is 1, if Rel. ThT >2)

Item under review: CKAKAQANMWQ . Reported ThT Cat.? 0 (ThT-inactive (N-Fold <2))

GET /values?readout=ThT Cat.&item= CRFRVPF 0 (ThT-inactive (N-Fold <2))

GET /values?readout=ThT Cat.&item= KFKFKFQF 1 (ThT. Cat is 1, if Rel. ThT >2)

Requested field: ThT Cat.. Item: KIKIQIII 1 (ThT. Cat is 1, if Rel. ThT >2)

Could you tell me which ThT Cat. is on file for KFKFQFNM ? 0 (ThT-inactive (N-Fold <2))

# get_value(readout='ThT Cat.', item= CEIEIQINMWQ ) 1 (ThT. Cat is 1, if Rel. ThT >2)

Suppose we examine the substance KIKIQIC ; what ThT Cat. value has been reported? 1 (ThT. Cat is 1, if Rel. ThT >2)

Consider the substance CRFRFQF and give its measured ThT Cat.. 1 (ThT. Cat is 1, if Rel. ThT >2)

###

Format: physicochemical
MEASUREMENT_SETUP: Fig S10 panel D
Description: 4 µL of 1 mg/mL peptide fibrils solution is added to a 20 µL, 50 µM ThT–solution in PBS. The mixture is incubated for 15 min at RT to allow binding of ThT dye with β–sheet rich structures. […] Fluorescence spectra were recorded on an Infinite® M1000 PRO microplate reader (Tecan) at λem = 488 nm upon excitation at λex = 440 nm with 10 nm bandwidths and multiple reads per well (3×3). […] Furthermore, fluorescence microscopy was conducted by staining 1 µL preformed fibrils (1 mg/mL) with 9 µL ThT (50 µM). […]
QUANTITY_KIND: Tht category (> 2 to blank = +)

What does the data say about its Tht category (> 2 to blank = +)? Entry: CHLHLQL 1 (ThT. Cat is 1, if Rel. ThT >2)

// lookup Tht category (> 2 to blank = +) for RLRLTLC 0 (ThT-inactive (N-Fold <2))

I would be grateful if you could share the reported Tht category (> 2 to blank = +) for KIKIKIKIWW . 1 (ThT. Cat is 1, if Rel. ThT >2)

Sample KYKGAIIGNIK — what was its Tht category (> 2 to blank = +)? 0 (ThT-inactive (N-Fold <2))

Given the entry KAKAQA , report its measured Tht category (> 2 to blank = +). 0 (ThT-inactive (N-Fold <2))

Which value of Tht category (> 2 to blank = +) has been reported for FKFDKFKFDK in the records? 0 (ThT-inactive (N-Fold <2))

Dear colleague, I am looking for the recorded Tht category (> 2 to blank = +) of the following substance: NMWQKFKFQF 0 (ThT-inactive (N-Fold <2))

Item HHHHKAKAKAKAYYYY has what recorded Tht category (> 2 to blank = +)? 0 (ThT-inactive (N-Fold <2))

Tht category (> 2 to blank = +) for QCKAKAQANMWQ ? 0 (ThT-inactive (N-Fold <2))

Consider the substance shown here: KAKQAANMWQ What is its recorded Tht category (> 2 to blank = +)? 0 (ThT-inactive (N-Fold <2))

Recorded Tht category (> 2 to blank = +) for CEFEFQFNMWQ , please? 1 (ThT. Cat is 1, if Rel. ThT >2)

I am curious: what Tht category (> 2 to blank = +) value has been reported for KFKQFFINMWQ ? 0 (ThT-inactive (N-Fold <2))

Entry under review: HHHHKIKIKIKIWWWW . Reported Tht category (> 2 to blank = +)? 1 (ThT. Cat is 1, if Rel. ThT >2)

I would be grateful if you could share the reported Tht category (> 2 to blank = +) for HGEHGEHGE . 0 (ThT-inactive (N-Fold <2))

Field request: Tht category (> 2 to blank = +) | item: QCKFKQFFNM 1 (ThT. Cat is 1, if Rel. ThT >2)

Fill in the blank: the reported Tht category (> 2 to blank = +) of EIEIEIEI is ____. 0 (ThT-inactive (N-Fold <2))

Consider the substance KVKVKVQV and give its measured Tht category (> 2 to blank = +). 1 (ThT. Cat is 1, if Rel. ThT >2)

Entry under review: CSISIQINM . Reported Tht category (> 2 to blank = +)? 1 (ThT. Cat is 1, if Rel. ThT >2)

If you can, please state the reported Tht category (> 2 to blank = +) value of CETMYDKILKNLSRSR . 0 (ThT-inactive (N-Fold <2))

Dear colleague, I am looking for the recorded Tht category (> 2 to blank = +) of the following substance: NMWQKVGTPL 1 (ThT. Cat is 1, if Rel. ThT >2)

# query: Tht category (> 2 to blank = +) of entry KAKAQANM 0 (ThT-inactive (N-Fold <2))

Recorded Tht category (> 2 to blank = +) for KLKQLL , please? 0 (ThT-inactive (N-Fold <2))

Look up Tht category (> 2 to blank = +) for this substance: KAKAQANMWQ 0 (ThT-inactive (N-Fold <2))

# query: Tht category (> 2 to blank = +) of entry EIKIQINM 1 (ThT. Cat is 1, if Rel. ThT >2)

For the substance CKFKQFFNMWQ , what Tht category (> 2 to blank = +) is on record? 1 (ThT. Cat is 1, if Rel. ThT >2)

Bench note: what Tht category (> 2 to blank = +) did MKFKFQF show? 0 (ThT-inactive (N-Fold <2))

Please give the measured Tht category (> 2 to blank = +) for this substance: CKAKAQANM 0 (ThT-inactive (N-Fold <2))

Value lookup for Tht category (> 2 to blank = +); key = CKIKIQI 1 (ThT. Cat is 1, if Rel. ThT >2)
